study-target: T1, human Fibroblast Activation Protein (FAP), soluble antigen (human, UniProt Q12884 26-760, biotinylated when immobilized on streptavidin sensors)
T1 construct: also called hFAP; biotinylated FAP
T1 sequence (Q12884 26-760 limits assumed): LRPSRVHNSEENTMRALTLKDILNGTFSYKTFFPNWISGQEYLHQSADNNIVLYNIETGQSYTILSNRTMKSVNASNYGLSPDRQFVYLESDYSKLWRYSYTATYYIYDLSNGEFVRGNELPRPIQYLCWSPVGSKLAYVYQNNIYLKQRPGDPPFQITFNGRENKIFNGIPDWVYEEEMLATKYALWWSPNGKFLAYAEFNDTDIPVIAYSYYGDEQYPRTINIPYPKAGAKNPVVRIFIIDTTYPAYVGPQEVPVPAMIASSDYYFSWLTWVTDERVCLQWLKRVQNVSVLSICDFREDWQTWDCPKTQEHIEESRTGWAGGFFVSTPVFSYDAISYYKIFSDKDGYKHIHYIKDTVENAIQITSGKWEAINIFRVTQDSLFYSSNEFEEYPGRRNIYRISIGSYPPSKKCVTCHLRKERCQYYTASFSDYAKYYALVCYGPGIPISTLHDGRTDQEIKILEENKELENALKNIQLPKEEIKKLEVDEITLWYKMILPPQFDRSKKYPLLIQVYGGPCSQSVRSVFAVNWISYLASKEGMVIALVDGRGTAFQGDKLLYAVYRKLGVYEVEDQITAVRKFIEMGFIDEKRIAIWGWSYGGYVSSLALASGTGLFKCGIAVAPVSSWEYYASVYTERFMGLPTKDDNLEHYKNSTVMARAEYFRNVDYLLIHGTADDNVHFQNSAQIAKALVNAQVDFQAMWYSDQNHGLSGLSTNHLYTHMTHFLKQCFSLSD
assay-name: BLI per 6.1.3, human FAP;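 further: biolayer interferometry with immobilized antigen on sensors, antibody association up to 240 s then dissociation up to 420 s, reference-subtracted, global 1:1 fit with unlinked Rmax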
endpoint: kon
Your reply should be a number followed by the unit it is expressed in.

Value of measured kon for the entry 872-5 VH Q96L (antibody, V domains shown) VH: EVQLVESGGGLVQPGGSLRLSCAASGFTFRGYIMSWVRQAPGKGLEWVSWISPEGSRTGYADSVKGRFTISRDNSKNTLYLQMNSLRAEDTAVYYCARLLYGTWFDYWGQGTLVTVSS VL: DIQMTQSPSSLSASVGDRVTITCRASQSISSYLNWYQQKPGKAPKLLIYAASSLQSGVPSRFSGSGSGTDFTLTISSLQPEDFATYYCQQATLLLPTFGQGTKVEIKR : 542000 M⁻¹ s⁻¹
